Each record here notes measured IC50.
study target: DRB1*0401
experiment summary: binding to purified HLA
Entry rule: numbers only, all in nM.

binder | endpoint label | unit of measurement | observed result
AAAKFVAAWTLKAAA [SEQ ID NO: 4] | IC50 | nM | 2.6
AAAFFVAANTLKADA [F4.N9.D14] | IC50 | nM | 4
AAAWFVAANTLHAAA [W4.N9.H12] | IC50 | nM | 2.9

// switching to the query binder
Quick one: IC50 for AAAYFVAAWTLHAAA [Y4.H12] ?
2.6

Data credit: patent US20160114035A1
